assay: Volume of distribution at steady state in mouse at 5 mg/kg, iv; format: ADME, organism-based; set-up: dose 5 mg/kg, route intravenous; conditions: in vivo, read-out: Vdss
ASSAY READOUT: Vd (L/kg)
One number for each entry, in L/kg.

Name the recorded Vd of the molecule listed here: CN1CCN(c2ccc3nc(-c4c(N)c5c(F)cccc5[nH]c4=O)[nH]c3c2)CC1 [DOVITINIB]
12

###

target: Platelet-derived growth factor receptor beta (Homo sapiens); assay: Inhibition of human recombinant PDGFRbeta
Sequence (P09619 whole entry): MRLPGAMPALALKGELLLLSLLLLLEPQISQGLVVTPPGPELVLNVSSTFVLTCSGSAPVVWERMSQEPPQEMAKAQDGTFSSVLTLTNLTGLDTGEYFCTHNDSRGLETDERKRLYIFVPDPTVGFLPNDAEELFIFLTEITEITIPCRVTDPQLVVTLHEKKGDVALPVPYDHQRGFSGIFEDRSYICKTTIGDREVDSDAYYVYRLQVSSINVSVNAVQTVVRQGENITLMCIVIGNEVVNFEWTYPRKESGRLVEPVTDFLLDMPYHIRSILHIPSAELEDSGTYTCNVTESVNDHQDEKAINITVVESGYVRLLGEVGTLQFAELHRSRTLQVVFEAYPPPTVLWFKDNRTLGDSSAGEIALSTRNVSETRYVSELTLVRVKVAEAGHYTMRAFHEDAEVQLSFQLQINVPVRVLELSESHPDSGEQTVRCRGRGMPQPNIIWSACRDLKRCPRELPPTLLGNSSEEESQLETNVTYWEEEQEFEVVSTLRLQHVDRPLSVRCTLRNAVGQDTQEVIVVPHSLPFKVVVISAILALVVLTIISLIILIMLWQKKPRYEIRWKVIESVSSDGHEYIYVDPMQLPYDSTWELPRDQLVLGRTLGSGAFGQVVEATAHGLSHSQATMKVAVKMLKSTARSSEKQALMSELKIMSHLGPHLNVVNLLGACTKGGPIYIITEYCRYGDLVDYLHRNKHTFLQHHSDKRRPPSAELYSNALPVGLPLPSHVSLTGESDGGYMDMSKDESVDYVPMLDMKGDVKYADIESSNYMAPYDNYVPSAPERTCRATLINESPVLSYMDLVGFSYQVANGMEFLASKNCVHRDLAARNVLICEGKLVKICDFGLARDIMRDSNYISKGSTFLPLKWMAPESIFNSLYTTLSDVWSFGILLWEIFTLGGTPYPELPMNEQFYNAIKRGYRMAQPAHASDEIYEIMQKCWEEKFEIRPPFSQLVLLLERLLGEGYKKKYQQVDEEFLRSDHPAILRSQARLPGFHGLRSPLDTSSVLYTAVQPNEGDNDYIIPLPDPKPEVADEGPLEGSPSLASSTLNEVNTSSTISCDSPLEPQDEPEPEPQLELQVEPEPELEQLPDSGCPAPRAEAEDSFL
For each entry below, report its pIC50 value.
Give bare numbers, as −log10 of the molar value.

Sample records with pIC50:
# MOLECULE, ASSAY READOUT, TEST VALUE
data = [
    ("O=c1[nH]c2ccccc2c(O)c1-c1nc2ccccc2[nH]1", "pIC50", 7.70),
    ("CN(C)c1c(-c2nc3ccccc3[nH]2)c(=O)[nH]c2ccccc12", "pIC50", 7.15),
    ("CN1CCN(c2ccc3[nH]c(-c4c(N)c5cccc(F)c5[nH]c4=O)nc3c2)CC1", "pIC50", 7.85),
    ("CN1CCN(c2ccc3nc(-c4c(N)c5ccc(F)cc5[nH]c4=O)[nH]c3c2)CC1", "pIC50", 9.40),
    ("CNc1ccc2c(N)c(-c3nc4ccc(N5CCN(C)CC5)cc4[nH]3)c(=O)[nH]c2c1", "pIC50", 8.05),
    ("O=c1[nH]c2ccccc2c(NCC2CCNCC2)c1-c1nc2ccccc2[nH]1", "pIC50", 9.05),
    ("Cc1cc2nc(-c3c(N)c4ccccc4[nH]c3=O)[nH]c2cc1C", "pIC50", 7.92),
    ("Nc1c(-c2nc3cc(N4CCOCC4)ccc3[nH]2)c(=O)[nH]c2ccccc12", "pIC50", 8.30),
    ("CNc1c(-c2nc3ccccc3[nH]2)c(=O)[nH]c2ccccc12", "pIC50", 7.52),
    ("CN1CCN(c2ccc3[nH]c(-c4c(N)c5cc(N(C)C)ccc5[nH]c4=O)nc3c2)CC1", "pIC50", 8.15),
]

Below is a list of molecules. For each, state its recorded pIC50.
1. CN1CCCN(c2ccc3[nH]c(-c4c(N)c5ccccc5[nH]c4=O)nc3c2)CC1
2. Nc1c(-c2nc3ccc(OCCN4CCOCC4)cc3[nH]2)c(=O)[nH]c2ccccc12
3. Cc1ccc2nc(-c3c(N)c4ccccc4[nH]c3=O)[nH]c2c1
4. CN1CCN(C(=O)c2ccc3[nH]c(-c4c(N)c5ccccc5[nH]c4=O)nc3c2)CC1
5. CN1CCN(c2ccc3nc(-c4c(N)c5cc(N)ccc5[nH]c4=O)[nH]c3c2)CC1
6. CN1CCN(Cc2ccc3[nH]c(-c4c(N)c5ccccc5[nH]c4=O)nc3c2)CC1
7. Nc1c(-c2nc3ccccc3[nH]2)c(=O)[nH]c2ccccc12
8. CN1CCN(c2cccc3[nH]c(=O)c(-c4nc5ccccc5[nH]4)c(N)c23)CC1

[8.30, 8.30, 7.52, 9.05, 8.15, 8.70, 8.00, 9.52]
